Each recorded value in this set is attributed to patent US20220112204A1.

test system: phospho-ERK1/2 (Thr202/Tyr204) in MIA PaCa-2 cell line; assay: pERK and ERK Western blot analysis, MIA PaCa-2; format: cell-based; details: Homo sapiens; MIA PaCa-2 cell line, 4 hours after incubation; read-out: 2D pERK IC50
measurement_name: IC50

Below: 4 compounds and their reported IC50.
>>> result("C=C(F)C(=O)N1CCN(c2nc(OC[C@@]34CCCN3C[C@H](F)C4)nc3c2CO[C@@H](c2cccc4cccc(Cl)c24)C3)C[C@@H]1CC#N (single isomer, unassigned)")
"> 100 nM"
>>> result("C=C(F)C(=O)N1CCN(c2nc(OCC34CCCN3CCC4)nc3c2CO[C@H](c2cccc4cccc(Cl)c24)C3)C[C@@H]1CC#N (single isomer, unassigned)")
"1 to 10 nM"
>>> result("C=CC(=O)N1CCN(c2nc(OC[C@@H]3C[C@@H](F)CN3C)nc3c2COC(c2cccc4ccccc24)C3)C[C@@H]1CC#N (stereo partly drawn)")
"1 to 10 nM"
>>> result("C=C(F)C(=O)N1CCN(c2nc(OCC3(CN(C)C)CC3)nc3c2COC(c2cccc4cccc(Cl)c24)C3)C[C@@H]1CC#N (stereo partly drawn)")
"10 to 100 nM"

Problem: Report IC50 for C=C(F)C(=O)N1CCN(c2nc(OCC34CCCN3CCC4)nc3c2CO[C@@H](c2cccc4cccc(C)c24)C3)C[C@@H]1CC#N (single isomer, unassigned) please.
Solution: > 100 nM

====

# key: entry, value: IC50
system: phospho-ERK1/2 (Thr202/Tyr204) in NCI-H23 cells; assay: pERK and ERK Western blot analysis, NCI-H23; type: cell-based; details: Homo sapiens; NCI-H23, KRAS G12C, 4 hours
Please give a number only; it is taken to be in nM.

>>> readout_number("C=C(F)C(=O)N1CCN(c2nc(OC[C@@]34CCCN3C[C@H](F)C4)nc3c2CO[C@H](c2cccc4cccc(Cl)c24)C3)C[C@@H]1CC#N")
1.7

Now, please, on to the next molecule.
Problem: Report IC50 for C=C(F)C(=O)N1CCN(c2nc(OCC34CCCN3CCC4)nc3c2CO[C@H](c2cccc4cccc(Cl)c24)C3)C[C@@H]1CC#N (single isomer, unassigned) please.
Solution: 6.4

====

biological target: KRAS-G12C mutant (Homo sapiens, UniProt P01116, G12C); assay: Gel shift assay (SDS-PAGE) for covalent modification of KRAS G12C; type: binding; settings: 0.5 μM compound, 1 μM GDP-bound KRAS G12C, 25° C., 5 minutes, shift indicative of covalent cysteine conjugation
measurement_name: KRAS-G12C molecular weight shift

>>> result("C=C(F)C(=O)N1CCN(c2nc(OCC34CCCN3CCC4)nc3c2[C@@H](C)O[C@@H](c2cccc4c2CCCC4)C3)C[C@@H]1CC#N [Compound 60]")
"No"
>>> result("C=C(F)C(=O)N1CCN(c2nc(OCC34CCCN3CCC4)nc3c2CO[C@H](c2cccc4cccc(C)c24)C3)C[C@@H]1CC#N (single isomer, unassigned) [Compound 58]")
"Yes"
>>> result("C=C(F)C(=O)N1CCN(c2nc(OCC34CCCN3CCC4)nc3c2CO[C@@H](c2cccc4cccc(Cl)c24)C3)C[C@@H]1CC#N (single isomer, unassigned) [Compound 54]")
"No"
>>> result("C=C(F)C(=O)N1CCN(c2nc(OCC34CCCN3CCC4)nc3c2[C@H](C)O[C@H](c2cccc4c2CCCC4)C3)C[C@@H]1CC#N [Compound 61]")
"Yes"

Now, please, on to the next compound.
Problem: Report KRAS-G12C molecular weight shift for C=C(F)C(=O)N1CCN(c2nc(OCC34CCCN3CCC4)nc3c2CO[C@H](c2cccc4cccc(Cl)c24)C3)C[C@@H]1CC#N (single isomer, unassigned) [Compound 55] please.
Solution: Yes
